Origin of values: PubChem BioAssay AID651640

As shown below, each of these molecules has a reported CPE inhibition value.
- Assay: inhibitors of DENV2 cytopathic effect, primary screen, cell-based, plate reader, single concentration (AID 651640);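 also: 0% = median of neutral control wells and 100% = median of positive control wells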
- Reported conditions: DENV2-infected cells, cytopathic effect rescue, at 9.99 µM, active compounds read high
Hit rate of the full screen: of about 350,000 compounds, about 6,000 (1.7%) were called active. Another 5% or so got no clear call; they are omitted. Shown is part of a subset that was picked to be rich in actives.
Give the value, in units of %, as a plain number.

Some molecules with recorded CPE inhibition:
Molecule	Reported metric	Observed measurement
O=C(CSc1ncnc2sccc12)N1CCN(C(=O)c2cccs2)CC1	CPE inhibition	2.68
COc1ccccc1CNC(=O)C[C@H]1CC[C@@H]2[C@H](COC[C@H](O)CN2Cc2ccccc2)O1	CPE inhibition	-0.546
O=C(NC1CCCCC1)C1CCCN(S(=O)(=O)c2ccc(Br)s2)C1 (centres undefined)	CPE inhibition	2.35
O=C(C1CCN(S(=O)(=O)c2ccc(Br)s2)CC1)N1CCN(C2CCCCC2)CC1	CPE inhibition	66.2
COc1ccccc1NC(=O)N[C@H]1C=C[C@H](CC(=O)N[C@@H](C)c2ccccc2)O[C@H]1CO	CPE inhibition	4.39

Query: Any idea what CPE inhibition was measured for CC(=O)C1=C(C)N(Cc2ccccc2)C(=S)NC1c1cccc(Br)c1 (centres undefined) ?
Response: -5.19

Query: Any idea what CPE inhibition was measured for COC(=O)C[C@H]1CC[C@H]2[C@@H](COc3ccc(NC(=O)C4CC4)cc3C(=O)N2C)O1 ?
Response: -4.57

Query: Any idea what CPE inhibition was measured for CCC(=O)N1CCC2(CC1)CN(Cc1cccc(OC)c1)[C@@H](CO)c1[nH]c3cc(OC)ccc3c12 ?
Response: -4.07

Query: Any idea what CPE inhibition was measured for O=C(C1CCOCC1)N1CC(=O)N2[C@H](CO)[C@H](c3ccc(C#CC4CCCCC4)cc3)[C@H]2C1 ?
Response: -10.5

====

As shown below, each of these compounds has a reported CPE inhibition value.
- Assay: inhibitors of DENV2 cytopathic effect, primary screen, cell-based, plate reader, single concentration (AID 651640);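 also: 0% = median of neutral control wells and 100% = median of positive control wells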
- Reported conditions: DENV2-infected cells, cytopathic effect rescue, at 9.99 µM, active compounds read high
Out of some 350,000 compounds screened, about 6,000 (1.7%) were called active. About 5% were inconclusive and are not listed. The sample holds actives, similar compounds and a random draw of the others, so the mix is not that of the screen.

Some compounds with recorded CPE inhibition:
Compound	CPE inhibition
CCC(=O)Nc1ccc2c(c1)C(=O)N(C)C[C@H](OC)[C@@H](C)CN(Cc1cccnc1)[C@H](C)CO2	3.46% (inactive)
C[C@H](CO)N1C[C@H](C)[C@H](CN(C)C)Oc2ccc(NC(=O)Cc3ccccc3)cc2CC1=O	9.5% (inactive)
CO[C@@H]1CN(C)C(=O)c2ccc(NC(=O)c3ccc(F)cc3)cc2OC[C@H](C)N(C(=O)c2ccc(F)cc2)C[C@@H]1C	-1.44% (inactive)
C[C@@H]1CCCCO[C@H](CN(C)S(=O)(=O)c2cccs2)[C@H](C)CN([C@@H](C)CO)C(=O)c2cc(NS(=O)(=O)c3cccs3)ccc2O1	-8.04% (inactive)
O=C(C1CCC1)N1C[C@@H]2N[C@H](C1)C2c1ccc(-c2cncnc2)cc1 (some centres undefined)	10.6% (inactive)
C[C@H]1CN([C@@H](C)CO)C(=O)c2cc(NS(=O)(=O)c3cccs3)ccc2O[C@@H]1CN(C)C(=O)Nc1ccccc1	22.2% (active)
C[C@H](CO)N1C[C@H](C)[C@H](CN(C)S(=O)(=O)c2cn(C)cn2)OCCCC[C@H](C)Oc2ccc(N(C)C)cc2C1=O	1.23% (inactive)
C[C@H]1CCCCO[C@@H](CN(C)S(=O)(=O)c2cccs2)[C@@H](C)CN([C@@H](C)CO)C(=O)c2cc(NS(=O)(=O)c3ccc(Cl)cc3)ccc2O1	-0.143% (inactive)

Query: Any idea what CPE inhibition was measured for CC(C)CC#Cc1ccc2c(c1)O[C@H](CN(C)C(=O)CC1CC1)[C@@H](C)CN([C@@H](C)CO)S2(=O)=O ?
Response: 0.266% (inactive)

Query: Any idea what CPE inhibition was measured for O=C(CN1CCOCC1)N1C[C@@H]2N[C@H](C1)C2c1ccc(-c2ccncc2)cc1 (some centres undefined) ?
Response: -7.01% (inactive)
